target: UV-DDB (DDB1-DDB2) (Homo sapiens, UniProt Q16531;Q92466 1-1140;1-427)
Sequence (Q16531 whole entry, chain 1 of 2): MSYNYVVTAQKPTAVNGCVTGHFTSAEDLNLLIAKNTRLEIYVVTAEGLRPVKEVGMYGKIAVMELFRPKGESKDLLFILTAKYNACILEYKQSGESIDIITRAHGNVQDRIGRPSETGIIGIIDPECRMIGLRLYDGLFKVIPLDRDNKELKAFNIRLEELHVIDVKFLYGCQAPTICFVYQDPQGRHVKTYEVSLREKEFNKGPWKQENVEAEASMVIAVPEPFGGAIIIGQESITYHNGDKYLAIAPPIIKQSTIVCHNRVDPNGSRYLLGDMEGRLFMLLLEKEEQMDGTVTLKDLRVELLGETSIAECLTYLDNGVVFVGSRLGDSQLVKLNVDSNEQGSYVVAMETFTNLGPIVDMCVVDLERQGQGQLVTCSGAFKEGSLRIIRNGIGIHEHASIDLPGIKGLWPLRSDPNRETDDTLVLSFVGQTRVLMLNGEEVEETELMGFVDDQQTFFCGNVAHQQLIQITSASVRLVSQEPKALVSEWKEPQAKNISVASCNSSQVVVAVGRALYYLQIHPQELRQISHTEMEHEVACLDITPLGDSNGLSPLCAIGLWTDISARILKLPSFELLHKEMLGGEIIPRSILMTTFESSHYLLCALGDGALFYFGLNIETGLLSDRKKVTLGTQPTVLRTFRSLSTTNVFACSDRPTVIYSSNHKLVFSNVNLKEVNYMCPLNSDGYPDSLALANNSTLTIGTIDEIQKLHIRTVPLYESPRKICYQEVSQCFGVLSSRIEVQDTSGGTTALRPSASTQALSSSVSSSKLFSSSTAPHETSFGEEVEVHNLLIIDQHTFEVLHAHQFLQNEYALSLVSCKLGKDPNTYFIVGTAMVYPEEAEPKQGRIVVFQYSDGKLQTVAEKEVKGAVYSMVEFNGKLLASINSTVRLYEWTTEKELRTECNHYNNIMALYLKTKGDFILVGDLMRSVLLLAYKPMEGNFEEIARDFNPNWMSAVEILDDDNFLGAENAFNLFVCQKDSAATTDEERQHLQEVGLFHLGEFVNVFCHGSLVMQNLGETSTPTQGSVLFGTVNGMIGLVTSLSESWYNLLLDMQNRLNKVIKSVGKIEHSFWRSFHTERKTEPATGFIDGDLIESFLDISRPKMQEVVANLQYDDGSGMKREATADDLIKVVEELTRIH
Sequence (Q92466 whole entry, chain 2 of 2): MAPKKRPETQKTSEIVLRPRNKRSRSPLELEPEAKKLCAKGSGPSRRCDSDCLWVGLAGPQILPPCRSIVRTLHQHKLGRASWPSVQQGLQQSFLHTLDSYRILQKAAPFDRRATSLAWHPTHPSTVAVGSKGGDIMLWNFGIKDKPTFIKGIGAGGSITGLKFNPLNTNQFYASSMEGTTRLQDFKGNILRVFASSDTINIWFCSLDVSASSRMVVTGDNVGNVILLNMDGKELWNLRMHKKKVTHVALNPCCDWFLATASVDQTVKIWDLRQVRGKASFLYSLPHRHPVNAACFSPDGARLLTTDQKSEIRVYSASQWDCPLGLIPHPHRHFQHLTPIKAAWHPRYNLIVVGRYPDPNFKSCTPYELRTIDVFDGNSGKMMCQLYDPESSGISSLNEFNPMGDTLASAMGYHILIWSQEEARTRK
assay_overview: EMSA; 4 nM DNA, no competitor; EMSA: 50 mM Tris-HCl pH 7.5, 100 mM NaCl, 0.1 mg/ml BSA, 1 mM DTT, 23°C, 45 min; DNA curtains: 10 mM Tris-HCl pH 8.0, 1 mM EDTA, 0.16% BSA, 1 mM DTT, 0-100 mM NaCl, 23°C
condition_label: protein: recombinant; tags: 3xHA at N-terminus of DDB1 (1xFLAG removed by PreScission); copies: 1;1; label: 5'-FAM on strand 2; blunt; T21 of strand 1 faces T of strand 2 (T-T mismatch at the CPD)
pKd: −log10 of the molar value.

{"binder": "CPD-containing 39 bp DNA (λ-I3_CPD / λ-I3_comp_FAM) (dsDNA, cyclobutane pyrimidine dimer T21^T22 in strand 1; 5'-phosphate on strand 1) DNA 1: TGCATGCGGCCGCTCTTCCCTTGGTGCGATCGCTCTTCG DNA 2: CGAAGAGCGATCGCACCATGGGAAGAGCGGCCGCATGCA", "pKd": "~8.30"}

Where do these numbers come from? They come from paper PMC12203913.
